Target: Sodium- and chloride-dependent GABA transporter 2 (Homo sapiens, UniProt Q9NSD5)
Sequence (Q9NSD5 whole entry): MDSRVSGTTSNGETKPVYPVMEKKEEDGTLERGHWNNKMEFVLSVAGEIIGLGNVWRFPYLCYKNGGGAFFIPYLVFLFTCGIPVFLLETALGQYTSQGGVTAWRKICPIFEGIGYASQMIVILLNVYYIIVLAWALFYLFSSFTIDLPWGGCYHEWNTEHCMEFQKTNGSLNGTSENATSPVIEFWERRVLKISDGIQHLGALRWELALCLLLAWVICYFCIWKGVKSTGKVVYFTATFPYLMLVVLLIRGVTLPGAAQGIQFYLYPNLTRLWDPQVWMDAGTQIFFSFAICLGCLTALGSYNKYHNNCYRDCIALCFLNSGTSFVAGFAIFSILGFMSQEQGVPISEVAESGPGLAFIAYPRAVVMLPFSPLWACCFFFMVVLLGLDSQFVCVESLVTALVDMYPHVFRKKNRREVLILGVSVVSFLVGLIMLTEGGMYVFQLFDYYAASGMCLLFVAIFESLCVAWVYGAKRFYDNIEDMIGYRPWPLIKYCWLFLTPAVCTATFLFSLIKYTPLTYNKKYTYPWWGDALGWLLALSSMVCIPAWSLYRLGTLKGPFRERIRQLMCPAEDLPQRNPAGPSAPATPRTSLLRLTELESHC
Test: Inhibition of human GAT2 expresses in tsA201 cells assessed as reduction in [3H]GABA uptake after 3 mins by scintillation counting method
Type: cell-based
Details: read-out: IC50
pIC50: −log10 of the molar value.
Value Type: pIC50

Name the recorded pIC50 of the compound listed here: O=C(CN1CCC(NC(=O)c2ccc(Cl)cc2Cl)CC1)c1ccccc1
< 4.00

Name the recorded pIC50 of the compound listed here: O=C(NC1CCN(Cc2ccccc2)CC1)c1ccc(Cl)nc1Cl
3.32

Name the recorded pIC50 of the compound listed here: O=C(O)CN1CCC(NC(=O)c2ccc(Cl)cc2Cl)CC1
< 3.00

Name the recorded pIC50 of the compound listed here: COc1cccc(C(=O)NC2CCN(Cc3ccccc3)CC2)c1OC
< 3.30

Name the recorded pIC50 of the compound listed here: O=C(NC1CCN(C/C=C/c2ccccc2)CC1)c1ccc(Cl)cc1Cl
< 4.00

Name the recorded pIC50 of the compound listed here: O=C(NC1CCN(Cc2ccc3ccccc3c2)CC1)c1ccc(Cl)cc1Cl
< 4.30

Name the recorded pIC50 of the compound listed here: C#CCN1CCC(NC(=O)c2ccc(Cl)cc2Cl)CC1
< 3.00

These entries and their values trace back to ChEMBL document CHEMBL4028872.
